Numbers sourced from ChEMBL document CHEMBL1154054.

- Test system: Mycobacterium tuberculosis
- assayProcedure: Antimycobacterial activity against Mycobacterium tuberculosis H37Rv assessed as reduction in relative light units at 5 ug/ml after 72 hrs by LRP assay
- Assay type: functional
- Design: scale not given: the % may be the effect or the level left
parameter: Activity (%)
Record the value in %, omitting the unit from your answer.

// query I am curious: what Activity value has been reported for O=C(N/N=C/c1cccc([N+](=O)[O-])c1)c1ccc(N2CCOCC2)cc1 ?
// result 98.4

// query I am curious: what Activity value has been reported for COc1cc(/C=N/NC(=O)c2ccc(N3CCOCC3)cc2)cc(OC)c1OC ?
// result 97.59

// query I am curious: what Activity value has been reported for O=C(N/N=C/c1ccc(F)cc1)c1ccc(N2CCOCC2)cc1 ?
// result 98.98

// query I am curious: what Activity value has been reported for O=C(N/N=C/c1ccc(O)cc1)c1ccc(N2CCOCC2)cc1 ?
// result 97.53

// query I am curious: what Activity value has been reported for O=C(N/N=C/c1ccc(Cl)cc1)c1ccc(N2CCOCC2)cc1 ?
// result 98.38

// query I am curious: what Activity value has been reported for O=C(N/N=C1\C=CCO1)c1ccc(N2CCOCC2)cc1 ?
// result 98.41

// query I am curious: what Activity value has been reported for Cc1ccc(/C=N/NC(=O)c2ccc(N3CCOCC3)cc2)cc1 ?
// result 97.75

// query I am curious: what Activity value has been reported for O=C(N/N=C\C=C\c1ccccc1)c1ccc(N2CCOCC2)cc1 ?
// result 97.82

// query I am curious: what Activity value has been reported for NNC(=O)c1ccncc1 ?
// result 99.01

// query I am curious: what Activity value has been reported for CN(C)c1ccc(/C=N/NC(=O)c2ccc(N3CCOCC3)cc2)cc1 ?
// result 98.49

// query I am curious: what Activity value has been reported for COc1ccc(/C=N/NC(=O)c2ccc(N3CCOCC3)cc2)cc1 ?
// result 98.1

---

- Tested on: Mycobacterium tuberculosis
- assayProcedure: Antimycobacterial activity against Mycobacterium tuberculosis H37Rv assessed as reduction in relative light units at 0.05 ug/ml after 72 hrs by LRP assay
- Assay type: functional
- Design: scale not given: the % may be the effect or the level left
Give measured Activity for each item. Keep answers brief.
Record the value in %, omitting the unit from your answer.

// query Record O=C(N/N=C/c1ccc(F)cc1)c1ccc(N2CCOCC2)cc1 : what is its Activity with Mycobacterium tuberculosis?
// result 96.78

// query Record O=C(N/N=C\C=C\c1ccccc1)c1ccc(N2CCOCC2)cc1 : what is its Activity with Mycobacterium tuberculosis?
// result 63.16

// query Record O=C(N/N=C1\C=CCO1)c1ccc(N2CCOCC2)cc1 : what is its Activity with Mycobacterium tuberculosis?
// result 15.04

// query Record O=C(N/N=C/c1ccc(Cl)cc1)c1ccc(N2CCOCC2)cc1 : what is its Activity with Mycobacterium tuberculosis?
// result 78.09

// query Record CN(C)c1ccc(/C=N/NC(=O)c2ccc(N3CCOCC3)cc2)cc1 : what is its Activity with Mycobacterium tuberculosis?
// result 20.85

// query Record NNC(=O)c1ccncc1 : what is its Activity with Mycobacterium tuberculosis?
// result 96

// query Record O=C(N/N=C/c1cccc([N+](=O)[O-])c1)c1ccc(N2CCOCC2)cc1 : what is its Activity with Mycobacterium tuberculosis?
// result 9.118

// query Record O=C(N/N=C/c1ccc(O)cc1)c1ccc(N2CCOCC2)cc1 : what is its Activity with Mycobacterium tuberculosis?
// result 51.79

// query Record COc1ccc(/C=N/NC(=O)c2ccc(N3CCOCC3)cc2)cc1 : what is its Activity with Mycobacterium tuberculosis?
// result 30.04

// query Record Cc1ccc(/C=N/NC(=O)c2ccc(N3CCOCC3)cc2)cc1 : what is its Activity with Mycobacterium tuberculosis?
// result 24.19

// query Record COc1cc(/C=N/NC(=O)c2ccc(N3CCOCC3)cc2)cc(OC)c1OC : what is its Activity with Mycobacterium tuberculosis?
// result 49.68
